- MEASUREMENT_TARGET: Epidermal growth factor receptor (Homo sapiens, UniProt P00533, EX19DEL)
- Sequence (P00533 whole entry, looked up, stated change not applied): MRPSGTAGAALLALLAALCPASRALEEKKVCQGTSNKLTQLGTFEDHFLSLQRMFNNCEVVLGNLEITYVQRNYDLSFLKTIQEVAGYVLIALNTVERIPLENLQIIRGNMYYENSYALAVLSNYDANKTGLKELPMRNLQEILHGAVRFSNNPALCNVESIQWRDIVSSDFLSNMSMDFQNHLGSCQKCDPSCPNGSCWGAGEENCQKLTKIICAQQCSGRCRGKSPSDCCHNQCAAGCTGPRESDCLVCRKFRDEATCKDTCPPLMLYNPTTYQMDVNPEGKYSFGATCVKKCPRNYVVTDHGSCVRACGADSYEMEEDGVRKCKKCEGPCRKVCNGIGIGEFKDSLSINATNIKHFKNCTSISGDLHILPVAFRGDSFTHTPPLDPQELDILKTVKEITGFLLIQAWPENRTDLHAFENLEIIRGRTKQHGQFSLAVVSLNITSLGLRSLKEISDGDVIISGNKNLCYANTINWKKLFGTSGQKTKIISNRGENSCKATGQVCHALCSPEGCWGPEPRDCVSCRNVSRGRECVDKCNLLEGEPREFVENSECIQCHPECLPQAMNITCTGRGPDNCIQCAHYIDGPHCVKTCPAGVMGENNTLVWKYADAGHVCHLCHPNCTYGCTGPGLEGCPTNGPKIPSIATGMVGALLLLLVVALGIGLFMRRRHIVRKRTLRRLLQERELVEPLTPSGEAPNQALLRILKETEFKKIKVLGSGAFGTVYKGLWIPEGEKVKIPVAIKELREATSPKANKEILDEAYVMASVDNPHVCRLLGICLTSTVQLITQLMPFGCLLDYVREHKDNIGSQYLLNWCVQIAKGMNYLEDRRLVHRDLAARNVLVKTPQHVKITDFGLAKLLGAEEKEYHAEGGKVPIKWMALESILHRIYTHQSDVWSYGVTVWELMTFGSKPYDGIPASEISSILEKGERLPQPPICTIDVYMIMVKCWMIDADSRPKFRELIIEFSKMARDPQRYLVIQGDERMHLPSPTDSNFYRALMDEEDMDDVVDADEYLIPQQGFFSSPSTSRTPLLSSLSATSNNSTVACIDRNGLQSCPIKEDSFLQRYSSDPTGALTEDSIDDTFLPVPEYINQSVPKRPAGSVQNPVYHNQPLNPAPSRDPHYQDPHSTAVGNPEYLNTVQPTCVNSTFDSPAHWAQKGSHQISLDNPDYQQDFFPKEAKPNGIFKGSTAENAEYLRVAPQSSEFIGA
- TEST_DESCRIPTION: Inhibition of EGFR exon19 deletion activating mutant autophosphorylation in human PC9 cells incubated for 2 hrs by ELISA
- Type: cell-based, PC-9
pEC50: −log10 of the molar value.
Measured pEC50 accompanies every entry in the list below.
OUTCOME_MEASURE: pEC50

compound_structure_string=C=CC(=O)Nc1cccc(-n2c(-c3nc(-c4cnn(C)c4)cnc3N)nc3ccccc32)c1 result_value=8.05
compound_structure_string=C=CC(=O)Nc1cccc(-n2c(-c3nc(-c4cnn(CCN5CCOCC5)c4)cnc3N)nc3ccccc32)c1 result_value=7.66
compound_structure_string=C=CC(=O)Nc1ccc(-n2c(-c3nc(-c4cnn(C5CCN(C)CC5)c4)cnc3N)nc3ccccc32)cc1 result_value=6.92
compound_structure_string=C=C(C)C(=O)Nc1cccc(-n2c(-c3nc(-c4cnn(C5CCN(C)CC5)c4)cnc3N)nc3ccccc32)c1 result_value=5.04
compound_structure_string=C=CC(=O)Nc1ccc(Cn2c(-c3nc(-c4cnn(C5CCN(C)CC5)c4)cnc3N)nc3ccccc32)cc1 result_value=5.30
compound_structure_string=C=CC(=O)Nc1cccc(-n2c(-c3nc(-c4cnn(C5CCN(C(=O)CN(C)C)CC5)c4)cnc3N)nc3ccccc32)c1 result_value=7.89

* * *

- MEASUREMENT_TARGET: Epidermal growth factor receptor (Homo sapiens)
- TEST_DESCRIPTION: Inhibition of wild-type EGFR autophosphorylation in human LoVo cells incubated for 2 hrs followed by EGF-stiumlation for 10 mins by ELISA
OUTCOME_MEASURE: EC50 (nM)

compound_structure_string=C=CC(=O)Nc1cccc(-n2c(-c3nc(-c4cnn(C5CCN(C(=O)CN(C)C)CC5)c4)cnc3N)nc3ccccc32)c1 outcome_measure=EC50 unit_spec=nM result_comparator== result_value=1140
compound_structure_string=C=CC(=O)Nc1cccc(-n2c(-c3nc(-c4cnn(C5CCN(C)CC5)c4)cnc3N)nc3ccccc32)c1F outcome_measure=EC50 unit_spec=nM result_comparator== result_value=2060
compound_structure_string=C=CC(=O)N(C)c1cccc(-n2c(-c3nc(-c4cnn(C5CCN(C)CC5)c4)cnc3N)nc3ccccc32)c1 outcome_measure=EC50 unit_spec=nM result_comparator== result_value=10900
compound_structure_string=C=CC(=O)Nc1cc(-n2c(-c3nc(-c4cnn(C5CCN(C)CC5)c4)cnc3N)nc3ccccc32)ccc1OC outcome_measure=EC50 unit_spec=nM result_comparator=> result_value=20000

* * *

Measured microsomal CLint accompanies every entry in the list below.
- TEST_DESCRIPTION: Intrinsic clearance in human liver microsomes
- Assay type: ADME
- TEST_PARAMETERS: read-out: CLH
OUTCOME_MEASURE: microsomal CLint (µL/min/mg)

compound_structure_string=C=CC(=O)Nc1cccc(-n2c(-c3nc(-c4cnn(C5CCN(C)CC5)c4)cnc3N)nc3ccncc32)c1 result_comparator== result_value=68
compound_structure_string=C=CC(=O)Nc1cccc(-n2c(-c3nc(-c4cnn(CCN5CCOCC5)c4)cnc3N)nc3ccccc32)c1 result_comparator== result_value=298
compound_structure_string=C=CC(=O)Nc1cccc(-n2c(-c3nc(-c4cnn(C5CCN(C(=O)CO)CC5)c4)cnc3N)nc3ccccc32)c1 result_comparator=> result_value=300
compound_structure_string=C=CC(=O)Nc1cccc(-n2c(-c3nc(-c4cnn(CCN5CCN(C)CC5)c4)cnc3N)nc3ccccc32)c1 result_comparator== result_value=60

* * *

- TEST_DESCRIPTION: Antiproliferative activity against human Calu6 cells incubated for 72 hrs by SYTOX green nucleic acid stain-based fluorescence analysis
- Type: cell-based, Calu-6
OUTCOME_MEASURE: GI50 at 72 h (µM)

compound_structure_string=C=CC(=O)Nc1cccc(-n2c(-c3nc(-c4cnn(C5CCN(C)CC5)c4)cnc3N)nc3ccccc32)c1 unit_spec=µM result_value=1.7

* * *

- MEASUREMENT_TARGET: Epidermal growth factor receptor (Homo sapiens)
- TEST_DESCRIPTION: Inhibition of wild-type EGFR autophosphorylation in human LoVo cells incubated for 2 hrs followed by EGF-stiumlation for 10 mins by ELISA
OUTCOME_MEASURE: EC50

compound_structure_string=C=CC(=O)Nc1ccc(Cn2c(-c3nc(-c4cnn(C5CCN(C)CC5)c4)cnc3N)nc3ccccc32)cc1 outcome_measure=EC50 result_value="> 30000 nM"
compound_structure_string=CC(=O)Nc1cccc(-n2c(-c3nc(-c4cnn(C5CCN(C)CC5)c4)cnc3N)nc3ccccc32)c1 outcome_measure=EC50 result_value="> 30000 nM"
compound_structure_string=C=CC(=O)Nc1cccc(Cn2c(-c3nc(-c4cnn(C5CCN(C)CC5)c4)cnc3N)nc3ccccc32)c1 outcome_measure=EC50 result_value="> 25000 nM"
compound_structure_string=C=C(C)C(=O)Nc1cccc(-n2c(-c3nc(-c4cnn(C5CCN(C)CC5)c4)cnc3N)nc3ccccc32)c1 outcome_measure=EC50 result_value="> 30000 nM"
compound_structure_string=C=CC(=O)Nc1cccc(-n2c(-c3nc(-c4cnn(C5CCN(C)CC5)c4)cnc3N)nc3ccncc32)c1 outcome_measure=EC50 result_value="> 15000 nM"
compound_structure_string=C=CC(=O)Nc1cccc(-n2c(-c3nc(-c4cnn(C5CCN(CC)CC5)c4)cnc3N)nc3ccccc32)c1 outcome_measure=EC50 result_value="1960 nM"
compound_structure_string=C=CC(=O)Nc1cccc(-n2c(-c3nc(-c4cnn(CCO)c4)cnc3N)nc3ccccc32)c1 outcome_measure=EC50 result_value="2250 nM"
compound_structure_string=C=CC(=O)Nc1cccc(-n2c(-c3nc(-c4cnn(C5CCN(C)CC5)c4)cnc3N)nc3ccccc32)c1 outcome_measure=EC50 result_value="980 nM"

* * *

- MEASUREMENT_TARGET: Epidermal growth factor receptor (Homo sapiens, UniProt P00533, L858R/T790M)
- Sequence (P00533 25-1210 T790M/L858R limits assumed): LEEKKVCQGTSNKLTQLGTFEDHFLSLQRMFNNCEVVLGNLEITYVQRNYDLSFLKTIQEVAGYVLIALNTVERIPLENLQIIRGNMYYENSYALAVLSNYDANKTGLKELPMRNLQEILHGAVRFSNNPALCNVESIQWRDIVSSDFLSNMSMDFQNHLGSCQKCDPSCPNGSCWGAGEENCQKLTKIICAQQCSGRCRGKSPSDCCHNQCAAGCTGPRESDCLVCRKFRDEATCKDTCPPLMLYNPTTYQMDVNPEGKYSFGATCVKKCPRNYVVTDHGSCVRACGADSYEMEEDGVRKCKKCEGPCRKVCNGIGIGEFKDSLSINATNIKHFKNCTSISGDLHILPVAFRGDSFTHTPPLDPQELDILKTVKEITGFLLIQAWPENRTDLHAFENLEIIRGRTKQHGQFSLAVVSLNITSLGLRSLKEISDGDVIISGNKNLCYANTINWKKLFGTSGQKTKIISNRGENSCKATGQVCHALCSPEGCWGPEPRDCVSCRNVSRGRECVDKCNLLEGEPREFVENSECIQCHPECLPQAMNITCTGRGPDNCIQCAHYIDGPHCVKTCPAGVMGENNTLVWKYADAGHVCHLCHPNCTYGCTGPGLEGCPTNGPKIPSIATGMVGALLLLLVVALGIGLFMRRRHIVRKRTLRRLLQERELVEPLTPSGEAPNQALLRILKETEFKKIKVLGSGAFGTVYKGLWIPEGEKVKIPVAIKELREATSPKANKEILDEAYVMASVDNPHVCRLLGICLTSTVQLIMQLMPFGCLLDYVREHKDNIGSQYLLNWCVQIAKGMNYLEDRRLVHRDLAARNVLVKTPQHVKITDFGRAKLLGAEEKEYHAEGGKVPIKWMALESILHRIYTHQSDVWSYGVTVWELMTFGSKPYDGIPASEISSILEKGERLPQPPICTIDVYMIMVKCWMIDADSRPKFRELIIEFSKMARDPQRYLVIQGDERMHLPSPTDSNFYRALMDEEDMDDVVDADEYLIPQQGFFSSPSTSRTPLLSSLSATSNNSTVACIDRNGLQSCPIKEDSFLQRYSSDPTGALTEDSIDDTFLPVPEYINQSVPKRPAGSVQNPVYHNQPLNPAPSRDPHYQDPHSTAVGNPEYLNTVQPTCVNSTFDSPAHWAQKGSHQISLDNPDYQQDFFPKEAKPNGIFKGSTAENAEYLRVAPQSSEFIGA
- TEST_DESCRIPTION: Inhibition of EGFR T790M/L858R double mutant autophosphorylation in human NCI-H1975 cells incubated for 2 hrs by ELISA
pEC50: −log10 of the molar value.
Measured pEC50 accompanies every entry in the list below.
OUTCOME_MEASURE: pEC50

compound_structure_string=C=CC(=O)Nc1ccccc1Cn1c(-c2nc(-c3cnn(C4CCN(C)CC4)c3)cnc2N)nc2ccccc21 outcome_measure=pEC50 result_comparator== result_value=8.15
compound_structure_string=C=CC(=O)Nc1cccc(-n2c(-c3nc(-c4cnn(C5CCN(CC)CC5)c4)cnc3N)nc3ccccc32)c1 outcome_measure=pEC50 result_comparator== result_value=8.05
compound_structure_string=C=CC(=O)Nc1cccc(-n2c(-c3nc(-c4cnn(C5CCN(C(=O)CO)CC5)c4)cnc3N)nc3ccccc32)c1 outcome_measure=pEC50 result_comparator== result_value=7.62
compound_structure_string=C=C(C)C(=O)Nc1cccc(-n2c(-c3nc(-c4cnn(C5CCN(C)CC5)c4)cnc3N)nc3ccccc32)c1 outcome_measure=pEC50 result_comparator=< result_value=4.70
compound_structure_string=C=CC(=O)Nc1cccc(-n2c(-c3nc(-c4cnn(CCN5CCN(C)CC5)c4)cnc3N)nc3ccccc32)c1 outcome_measure=pEC50 result_comparator== result_value=7.82
compound_structure_string=C=CC(=O)Nc1cccc(-n2c(-c3nc(-c4cnn(CCO)c4)cnc3N)nc3ccccc32)c1 outcome_measure=pEC50 result_comparator== result_value=7.92
compound_structure_string=C=CC(=O)Nc1ccc(Cn2c(-c3nc(-c4cnn(C5CCN(C)CC5)c4)cnc3N)nc3ccccc32)cc1 outcome_measure=pEC50 result_comparator== result_value=5.75
compound_structure_string=C=CC(=O)Nc1ccc(-n2c(-c3nc(-c4cnn(C5CCN(C)CC5)c4)cnc3N)nc3ccccc32)cc1 outcome_measure=pEC50 result_comparator== result_value=6.26
compound_structure_string=C=CC(=O)NCCCn1c(-c2nc(-c3cnn(C4CCN(C)CC4)c3)cnc2N)nc2ccccc21 outcome_measure=pEC50 result_comparator== result_value=5.77
compound_structure_string=C=CC(=O)Nc1cccc(-n2c(-c3nc(-c4cnn(C5CCN(C)CC5)c4)cnc3N)nc3ccccc32)c1F outcome_measure=pEC50 result_comparator== result_value=7.64
compound_structure_string=C=CC(=O)Nc1ccc(F)c(-n2c(-c3nc(-c4cnn(C5CCN(C)CC5)c4)cnc3N)nc3ccccc32)c1 outcome_measure=pEC50 result_comparator== result_value=7.14
compound_structure_string=C=CC(=O)Nc1cc(-n2c(-c3nc(-c4cnn(C5CCN(C)CC5)c4)cnc3N)nc3ccccc32)ccc1OC outcome_measure=pEC50 result_comparator== result_value=5.87

* * *

- MEASUREMENT_TARGET: Epidermal growth factor receptor (Homo sapiens, UniProt P00533, EX19DEL)
- TEST_DESCRIPTION: Inhibition of EGFR exon19 deletion activating mutant autophosphorylation in human PC9 cells incubated for 2 hrs by ELISA
pEC50: −log10 of the molar value.
OUTCOME_MEASURE: pEC50

compound_structure_string=C=CC(=O)Nc1cccc(-n2c(-c3nc(-c4cnn(C5CCN(C)CC5)c4)cnc3N)nc3ccncc32)c1 result_value=7.00
compound_structure_string=C=CC(=O)Nc1cccc(-n2c(-c3nc(-c4cnn(C5CCN(C(=O)CO)CC5)c4)cnc3N)nc3ccccc32)c1 result_value=7.74
compound_structure_string=C=CC(=O)Nc1cccc(Cn2c(-c3nc(-c4cnn(C5CCN(C)CC5)c4)cnc3N)nc3ccccc32)c1 result_value=6.55
compound_structure_string=C=CC(=O)Nc1cccc(-n2c(-c3nc(-c4cnn(C5CCN(C(C)C)CC5)c4)cnc3N)nc3ccccc32)c1 result_value=8.05
compound_structure_string=C=CC(=O)Nc1cc(-n2c(-c3nc(-c4cnn(C5CCN(C)CC5)c4)cnc3N)nc3ccccc32)ccc1OC result_value=6.43
compound_structure_string=C=CC(=O)Nc1cccc(-n2c(-c3nc(-c4cnn(C5CCN(C)CC5)c4)cnc3N)nc3ccccc32)c1F result_value=7.59
compound_structure_string=C=CC(=O)Nc1cccc(-n2c(-c3nc(-c4cnn(CCO)c4)cnc3N)nc3ccccc32)c1 result_value=8.10
